- EXPERIMENTAL_TARGET: PvENT1 (Plasmodium vivax, UniProt A5K8B0)
- Sequence (A5K8B0 1-416): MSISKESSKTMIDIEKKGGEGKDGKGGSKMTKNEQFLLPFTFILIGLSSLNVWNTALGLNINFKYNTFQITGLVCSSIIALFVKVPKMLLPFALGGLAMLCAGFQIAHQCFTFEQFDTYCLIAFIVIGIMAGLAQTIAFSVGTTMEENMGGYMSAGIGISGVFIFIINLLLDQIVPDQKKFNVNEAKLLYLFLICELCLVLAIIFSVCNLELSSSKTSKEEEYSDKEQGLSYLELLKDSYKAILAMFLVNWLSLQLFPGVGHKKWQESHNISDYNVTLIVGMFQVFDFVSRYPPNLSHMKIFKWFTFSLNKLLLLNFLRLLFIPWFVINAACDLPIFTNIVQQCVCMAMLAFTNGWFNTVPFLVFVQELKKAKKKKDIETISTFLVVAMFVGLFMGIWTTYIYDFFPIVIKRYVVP
- TEST_PROTOCOL: Inhibition of [3H]uridine uptake into PvENT1-expressing yeast
- Type: cell-based
- CONDITION_DESCRIPTION: IC50 for inhibition of [^3H]substrate uptake by the indicated purine, WT, Table 4, WT PvENT1, radiolabel [3H]uridine
QUANTITY_NAME: IC50 (µM)
One number for each entry, in µM.

Req: Kindly state the measured IC50 obtained for Nc1ncnc2c1ncn2[C@@H]1O[C@H](CO)[C@@H](O)[C@H]1O with PvENT1 (Plasmodium vivax, UniProt A5K8B0).
Resp: 167

* * *

- EXPERIMENTAL_TARGET: PvENT1 (Plasmodium vivax, UniProt A5K8B0)
- Sequence (A5K8B0 1-416): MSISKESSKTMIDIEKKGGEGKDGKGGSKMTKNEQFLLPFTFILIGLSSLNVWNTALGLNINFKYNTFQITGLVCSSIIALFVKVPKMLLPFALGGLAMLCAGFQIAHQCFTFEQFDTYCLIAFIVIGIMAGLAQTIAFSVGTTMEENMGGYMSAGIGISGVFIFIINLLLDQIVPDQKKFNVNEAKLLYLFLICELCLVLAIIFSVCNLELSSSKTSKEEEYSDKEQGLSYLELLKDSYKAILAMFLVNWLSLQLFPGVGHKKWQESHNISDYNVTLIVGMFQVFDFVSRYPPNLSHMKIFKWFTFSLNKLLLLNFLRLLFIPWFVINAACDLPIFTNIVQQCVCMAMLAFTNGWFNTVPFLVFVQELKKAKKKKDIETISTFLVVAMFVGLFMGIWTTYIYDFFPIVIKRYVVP
- TEST_PROTOCOL: Inhibition of [3H]adenosine uptake into PvENT1-expressing yeast
- Type: cell-based
- CONDITION_DESCRIPTION: IC50 for inhibition of [^3H]adenosine uptake, 50 nM [3H]adenosine
QUANTITY_NAME: IC50 (mM)
Give bare numbers, in mM.

Req: // lookup IC50 for O=c1[nH]c(=O)n([C@@H]2O[C@H](CO)[C@@H](O)[C@H]2O)cc1F
Resp: 1.7

* * *

- EXPERIMENTAL_TARGET: PvENT1 (Plasmodium vivax, UniProt A5K8B0)
- TEST_PROTOCOL: Inhibition of [3H]uridine uptake into PvENT1-expressing yeast
- Format: cell-based
- CONDITION_DESCRIPTION: read-out: IC50 for inhibition of [^3H]Uridine by indicated purine; 250 nM [3H]uridine, 15 min, PvENT1-expressing yeast, mean ± SD
QUANTITY_NAME: pIC50
Answers are plain numbers, as −log10 of the molar value.

Req: // lookup pIC50 for Nc1nc2c(ncn2[C@H]2C[C@H](O)[C@@H](CO)O2)c(=O)[nH]1
Resp: 4.69
